Origin of values: ChEMBL document CHEMBL2046362

System: Vero
Experiment: Cytotoxicity against african green monkey Vero cells
Format: cell-based
Settings: chlorocebus sabaeus
endpoint: CC50

Consider the following illustrative entries.
State measured CC50 of the compound `COC(=O)N[C@H](C(=O)N1CCC[C@H]1c1nc(-c2ccccc2)c(-c2ccc(-c3ccc(-c4[nH]c([C@@H]5CCCN5C(=O)[C@@H](NC(=O)OC)C(C)C)nc4-c4ccccc4)cc3)cc2)[nH]1)C(C)C` with Vero.
> 100 µM

State measured CC50 of the compound `COC(=O)N[C@H](C(=O)N1C[C@H](N=[N+]=[N-])C[C@H]1c1ncc(-c2ccc(-c3ccc(-c4[nH]c([C@@H]5C[C@@H](N=[N+]=[N-])CN5C(=O)[C@@H](NC(=O)OC)C(C)C)nc4Cl)cc3)cc2)[nH]1)C(C)C` with Vero.
> 100 µM

State measured CC50 of the compound `COC(=O)N[C@H](C(=O)N1CCC[C@H]1c1ncc(-c2ccc(-c3ccc(-c4[nH]c([C@@H]5CCCN5C(=O)[C@@H](NC(=O)OC)C(C)C)nc4F)cc3)cc2)[nH]1)C(C)C` with Vero.
83 µM

State measured CC50 of the compound `COC(=O)N[C@H](C(=O)N1C[C@@H](N=[N+]=[N-])C[C@H]1c1ncc(-c2ccc(-c3ccc(-c4cnc([C@@H]5C[C@H](N=[N+]=[N-])CN5C(=O)[C@@H](NC(=O)OC)C(C)C)[nH]4)cc3)cc2)[nH]1)C(C)C` with Vero.
> 100 µM

Proceeding to the next compound to report its CC50.
State measured CC50 of the compound `COC(=O)N[C@H](C(=O)N1C[C@H](n2cc(C(=O)OC)nn2)C[C@H]1c1ncc(-c2ccc(-c3ccc(-c4cnc([C@@H]5C[C@@H](n6cc(C(=O)OC)nn6)CN5C(=O)[C@@H](NC(=O)OC)C(C)C)[nH]4)cc3)cc2)[nH]1)C(C)C` with Vero.
> 100 µM

###

Target: CYP3A4 (Homo sapiens, UniProt P08684)
Sequence (P08684 whole entry): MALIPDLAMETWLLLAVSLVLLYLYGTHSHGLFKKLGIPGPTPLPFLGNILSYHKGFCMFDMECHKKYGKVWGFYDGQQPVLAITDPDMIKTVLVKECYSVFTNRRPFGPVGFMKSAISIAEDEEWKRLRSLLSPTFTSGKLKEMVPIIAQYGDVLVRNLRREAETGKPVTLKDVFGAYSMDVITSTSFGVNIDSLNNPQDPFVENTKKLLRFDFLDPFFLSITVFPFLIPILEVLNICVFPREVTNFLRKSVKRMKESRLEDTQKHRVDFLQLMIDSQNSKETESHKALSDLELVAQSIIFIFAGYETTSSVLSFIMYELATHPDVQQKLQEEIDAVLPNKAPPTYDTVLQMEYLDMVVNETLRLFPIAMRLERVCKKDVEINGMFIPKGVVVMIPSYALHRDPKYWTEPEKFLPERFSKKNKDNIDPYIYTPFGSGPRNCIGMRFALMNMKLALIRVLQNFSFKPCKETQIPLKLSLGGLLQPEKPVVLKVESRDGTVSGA
Assay: Inhibition of CYP3A4
Assay type: ADME
I'd be grateful if you could share measured IC90 for these entries.

Tell me its IC90 given `COC(=O)N[C@H](C(=O)N1CCC[C@H]1c1nc(Cl)c(-c2ccc(-c3ccc(-c4[nH]c([C@@H]5CCCN5C(=O)[C@@H](NC(=O)OC)C(C)C)nc4Cl)cc3)cc2)[nH]1)C(C)C` as the entry.
> 100 µM

Proceeding to the next compound to report its IC90.
Tell me its IC90 given `COC(=O)N[C@H](C(=O)N1CCC[C@H]1c1nc(F)c(-c2ccc(-c3ccc(-c4[nH]c([C@@H]5CCCN5C(=O)[C@@H](NC(=O)OC)C(C)C)nc4F)cc3)cc2)[nH]1)C(C)C` as the entry.
> 100 µM

###

Test system: Vero
Assay: Cytotoxicity against african green monkey Vero cells
Assay type: cell-based
Details: chlorocebus sabaeus
endpoint: CC50

Tell me its CC50 given `COC(=O)N[C@H](C(=O)N1C[C@@H](N=[N+]=[N-])C[C@H]1c1nc(Cl)c(-c2ccc(-c3ccc(-c4[nH]c([C@@H]5C[C@H](N=[N+]=[N-])CN5C(=O)[C@@H](NC(=O)OC)C(C)C)nc4Cl)cc3)cc2)[nH]1)C(C)C` as the entry.
98.1 µM

Tell me its CC50 given `COC(=O)N[C@H](C(=O)N1CCC[C@H]1c1nc(Br)c(-c2ccc(-c3ccc(-c4[nH]c([C@@H]5CCCN5C(=O)[C@@H](NC(=O)OC)C(C)C)nc4Br)cc3)cc2)[nH]1)C(C)C` as the entry.
84 µM

Go through the items and report each one's CC50.
1. COC(=O)N[C@H](C(=O)N1CCC[C@H]1c1nc(I)c(-c2ccc(-c3ccc(-c4[nH]c([C@@H]5CCCN5C(=O)[C@@H](NC(=O)OC)C(C)C)nc4I)cc3)cc2)[nH]1)C(C)C
2. COC(=O)N[C@H](C(=O)N1CCC[C@H]1c1nc(F)c(-c2ccc(-c3ccc(-c4[nH]c([C@@H]5CCCN5C(=O)[C@@H](NC(=O)OC)C(C)C)nc4F)cc3)cc2)[nH]1)C(C)C
3. COC(=O)N[C@H](C(=O)N1C[C@H](N=[N+]=[N-])C[C@H]1c1nc(Br)c(-c2ccc(-c3ccc(-c4[nH]c([C@@H]5C[C@@H](N=[N+]=[N-])CN5C(=O)[C@@H](NC(=O)OC)C(C)C)nc4Br)cc3)cc2)[nH]1)C(C)C

["> 100 µM", "> 100 µM", "> 100 µM"]

###

Target: Cytochrome P450 2D6 (Homo sapiens, UniProt P10635)
Sequence (P10635 whole entry): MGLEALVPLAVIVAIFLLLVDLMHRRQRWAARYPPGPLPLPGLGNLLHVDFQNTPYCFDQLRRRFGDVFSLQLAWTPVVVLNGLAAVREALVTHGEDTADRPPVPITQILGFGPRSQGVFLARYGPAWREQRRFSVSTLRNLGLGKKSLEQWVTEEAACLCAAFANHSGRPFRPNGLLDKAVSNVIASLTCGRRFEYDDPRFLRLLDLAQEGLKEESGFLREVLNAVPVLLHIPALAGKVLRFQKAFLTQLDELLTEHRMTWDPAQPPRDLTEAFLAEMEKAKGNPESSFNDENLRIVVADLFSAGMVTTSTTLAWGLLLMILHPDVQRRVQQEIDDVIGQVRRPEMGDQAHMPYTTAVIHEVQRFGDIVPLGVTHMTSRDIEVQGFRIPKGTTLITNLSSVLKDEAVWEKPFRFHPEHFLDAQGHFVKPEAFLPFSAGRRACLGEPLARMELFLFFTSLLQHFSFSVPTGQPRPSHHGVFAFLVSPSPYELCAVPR
pIC50: −log10 of the molar value.
endpoint: pIC50

Tell me its pIC50 given `COC(=O)N[C@H](C(=O)N1CCC[C@H]1c1nc(F)c(-c2ccc(-c3ccc(-c4[nH]c([C@@H]5CCCN5C(=O)[C@@H](NC(=O)OC)C(C)C)nc4F)cc3)cc2)[nH]1)C(C)C` as the entry.
< 4.00

###

Molecular target: UniProt P11712
Sequence (P11712 whole entry): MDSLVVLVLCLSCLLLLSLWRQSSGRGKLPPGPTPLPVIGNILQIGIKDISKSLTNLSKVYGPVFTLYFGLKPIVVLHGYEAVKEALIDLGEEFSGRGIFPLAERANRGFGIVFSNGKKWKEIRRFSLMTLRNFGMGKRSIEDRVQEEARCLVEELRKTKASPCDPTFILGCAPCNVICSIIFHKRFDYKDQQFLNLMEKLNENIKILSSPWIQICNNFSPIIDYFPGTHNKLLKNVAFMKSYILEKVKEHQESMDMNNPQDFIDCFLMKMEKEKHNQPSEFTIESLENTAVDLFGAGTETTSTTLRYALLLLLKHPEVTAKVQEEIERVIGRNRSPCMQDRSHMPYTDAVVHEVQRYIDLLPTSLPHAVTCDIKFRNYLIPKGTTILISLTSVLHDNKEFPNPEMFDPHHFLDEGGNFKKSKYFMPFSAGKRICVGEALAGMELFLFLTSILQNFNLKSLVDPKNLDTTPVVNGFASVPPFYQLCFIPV
Experiment: Inhibition of CYP2C9
Assay type: ADME
I'd be grateful if you could share measured IC90 for these entries.

Tell me its IC90 given `COC(=O)N[C@H](C(=O)N1CCC[C@H]1c1nc(Cl)c(-c2ccc(-c3ccc(-c4[nH]c([C@@H]5CCCN5C(=O)[C@@H](NC(=O)OC)C(C)C)nc4Cl)cc3)cc2)[nH]1)C(C)C` as the entry.
> 100 µM

Proceeding to the next molecule to report its IC90.
Tell me its IC90 given `COC(=O)N[C@H](C(=O)N1CCC[C@H]1c1nc(F)c(-c2ccc(-c3ccc(-c4[nH]c([C@@H]5CCCN5C(=O)[C@@H](NC(=O)OC)C(C)C)nc4F)cc3)cc2)[nH]1)C(C)C` as the entry.
> 100 µM

###

Biological target: Nonstructural protein 5A (Hepatitis C virus)
Test: Inhibition of HCV NS5A assessed as antiviral activity against HCV by viral replicon assay
Conditions: Hepacivirus hominis
endpoint: EC90

Go through the items and report each one's EC90.
1. COC(=O)N[C@H](C(=O)N1C[C@H](n2cc(-c3ccccc3)nn2)C[C@H]1c1ncc(-c2ccc(-c3ccc(-c4cnc([C@@H]5C[C@@H](n6cc(-c7ccccc7)nn6)CN5C(=O)[C@@H](NC(=O)OC)C(C)C)[nH]4)cc3)cc2)[nH]1)C(C)C
2. COC(=O)N[C@H](C(=O)N1C[C@H](N=[N+]=[N-])C[C@H]1c1ncc(-c2ccc(-c3ccc(-c4[nH]c([C@@H]5C[C@@H](N=[N+]=[N-])CN5C(=O)[C@@H](NC(=O)OC)C(C)C)nc4Cl)cc3)cc2)[nH]1)C(C)C
3. COC(=O)N[C@H](C(=O)N1CCC[C@H]1c1nc(F)c(-c2ccc(-c3ccc(-c4[nH]c([C@@H]5CCCN5C(=O)[C@@H](NC(=O)OC)C(C)C)nc4F)cc3)cc2)[nH]1)C(C)C
4. COC(=O)N[C@H](C(=O)N1CCC[C@H]1c1nc(I)c(-c2ccc(-c3ccc(-c4[nH]c([C@@H]5CCCN5C(=O)[C@@H](NC(=O)OC)C(C)C)nc4I)cc3)cc2)[nH]1)C(C)C
5. COC(=O)N[C@H](C(=O)N1CCC[C@H]1c1nc(Br)c(-c2ccc(-c3ccc(-c4[nH]c([C@@H]5CCCN5C(=O)[C@@H](NC(=O)OC)C(C)C)nc4Br)cc3)cc2)[nH]1)C(C)C
6. COC(=O)N[C@H](C(=O)N1C[C@@H](n2cc(C(=O)OC)nn2)C[C@H]1c1ncc(-c2ccc(-c3ccc(-c4cnc([C@@H]5C[C@H](n6cc(C(=O)OC)nn6)CN5C(=O)[C@@H](NC(=O)OC)C(C)C)[nH]4)cc3)cc2)[nH]1)C(C)C
7. COC(=O)N[C@H](C(=O)N1CCC[C@H]1c1nc(Cl)c(-c2ccc(-c3ccc(-c4[nH]c([C@@H]5CCCN5C(=O)[C@@H](NC(=O)OC)C(C)C)nc4Cl)cc3)cc2)[nH]1)C(C)C
8. COC(=O)N[C@H](C(=O)N1C[C@H](N=[N+]=[N-])C[C@H]1c1nc(Cl)c(-c2ccc(-c3ccc(-c4[nH]c([C@@H]5C[C@@H](N=[N+]=[N-])CN5C(=O)[C@@H](NC(=O)OC)C(C)C)nc4Cl)cc3)cc2)[nH]1)C(C)C

1. 9200 pM
2. 29.5 pM
3. 21.2 pM
4. 11 pM
5. 14 pM
6. > 10000 pM
7. 11.4 pM
8. 9.6 pM

Go through the items and report each one's EC90.
1. COC(=O)N[C@H](C(=O)N1CCC[C@H]1c1ncc(-c2ccc(-c3ccc(-c4[nH]c([C@@H]5CCCN5C(=O)[C@@H](NC(=O)OC)C(C)C)nc4F)cc3)cc2)[nH]1)C(C)C
2. COC(=O)N[C@H](C(=O)N1CCC[C@H]1c1nc(-c2ccccc2)c(-c2ccc(-c3ccc(-c4[nH]c([C@@H]5CCCN5C(=O)[C@@H](NC(=O)OC)C(C)C)nc4-c4ccccc4)cc3)cc2)[nH]1)C(C)C
3. COC(=O)N[C@H](C(=O)N1CCC[C@H]1c1nc(-c2cccs2)c(-c2ccc(-c3ccc(-c4[nH]c([C@@H]5CCCN5C(=O)[C@@H](NC(=O)OC)C(C)C)nc4-c4cccs4)cc3)cc2)[nH]1)C(C)C

1: 52.5 pM; 2: 700 pM; 3: 300 pM
